Test system: BFTC-905 (Bladder Carcinoma)
assay-details: combination Emax (second highest fraction inhibited in the dose matrix, 72 h); higher = more inhibition; extreme values may be limits of the assay
Listed next: entries and their corresponding combination Emax.
readout-label: combination Emax

[
  {
    "molecule": "Cc1nc(Nc2ncc(C(=O)Nc3c(C)cccc3Cl)s2)cc(N2CCN(CCO)CC2)n1 [Dasatinib] + CC(=O)Nc1cccc(-n2c(=O)n(C3CC3)c(=O)c3c(Nc4ccc(I)cc4F)n(C)c(=O)c(C)c32)c1 [Trametinib] (first compound max 2 µM, 7x7, partner max 1 µM)",
    "readout-label": "combination Emax",
    "measured-number": 0.863
  },
  {
    "molecule": "CN(CCO)CC[C@H](CSc1ccccc1)Nc1ccc(S(=O)(=O)NC(=O)c2ccc(N3CCC([C@@H](O)c4ccccc4-c4ccc(Cl)cc4)CC3)cc2)cc1S(=O)(=O)C(F)(F)F [AZD4320] + CS(=O)(=O)CCNCc1ccc(-c2ccc3ncnc(Nc4ccc(OCc5cccc(F)c5)c(Cl)c4)c3c2)o1 [Lapatinib] (first compound max 1 µM, 7x7, partner max 10 µM)",
    "readout-label": "combination Emax",
    "measured-number": 0.529
  },
  {
    "molecule": "CN(C)CCCOc1ccc(-c2ccc3ncc4c(c3c2)n(C2CCOCC2)c(=O)n4C)cn1 [AZD0156] + C=CCn1c(=O)c2cnc(Nc3ccc(N4CCN(C)CC4)cc3)nc2n1-c1cccc(C(C)(C)O)n1 [AZD1775] (first compound max 1 µM, partner max 1 µM)",
    "readout-label": "combination Emax",
    "measured-number": 0.517
  },
  {
    "molecule": "N#Cc1cnc(Nc2cc(NC[C@H]3CNCCO3)c(C(F)(F)F)cn2)cn1 [SRA737] + C=CCn1c(=O)c2cnc(Nc3ccc(N4CCN(C)CC4)cc3)nc2n1-c1cccc(C(C)(C)O)n1 [AZD1775] (first compound max 10 µM, partner max 1 µM)",
    "readout-label": "combination Emax",
    "measured-number": 0.777
  },
  {
    "molecule": "O=C(c1cc(Cc2n[nH]c(=O)c3ccccc23)ccc1F)N1CCN(C(=O)C2CC2)CC1 [Olaparib] + CC1(C)CCC(CN2CCN(c3ccc(C(=O)NS(=O)(=O)c4ccc(NCC5CCOCC5)c([N+](=O)[O-])c4)c(Oc4cnc5[nH]ccc5c4)c3)CC2)=C(c2ccc(Cl)cc2)C1 [Venetoclax] (first compound max 10 µM, 7x7, partner max 1 µM)",
    "readout-label": "combination Emax",
    "measured-number": 0.193
  }
]
